Reference source: ChEMBL document CHEMBL1145498

Measured ΔTm on Serine/threonine-protein kinase 16 (Homo sapiens) follows.

# structure-smiles, ΔTm
rows = [
    ("O=C(O)Cc1ccc(O)c([N+](=O)[O-])c1", "0.4 °C"),
    ("N#CCCc1ccc2c(c1)-c1[nH]c3ccc([N+](=O)[O-])cc3c1CC(=O)N2", "3 °C"),
    ("Oc1ccc(-c2nc(-c3ccc(F)cc3)c(-c3ccncc3)[nH]2)cc1", "0.5 °C"),
    ("Cn1cc(/C=C2/C(=O)Nc3ccc(S(N)(=O)=O)cc32)c2ccccc21", "1.7 °C"),
    ("Cc1c2ccncc2c(C)c2c1[nH]c1ccccc12", "10.7 °C"),
    ("O=C1c2ccccc2-c2n[nH]c3cccc1c23", "6.9 °C"),
    ("CN(C)C[C@@H]1CCn2cc(c3ccccc32)C2=C(C(=O)NC2=O)c2cn(c3ccccc23)CCO1", "0.8 °C"),
    ("COc1cc2ncnc(Nc3ccc(NC(=O)c4ccccc4)cc3)c2cc1OC", "0.4 °C"),
    ("CCOC(=O)c1cnc2oc3ccc(O)cc3c2c1-c1ccccc1", "5.4 °C"),
]

---

Measured ΔTm on Mitogen-activated protein kinase 11 (Homo sapiens, UniProt Q15759) follows.
Sequence (Q15759 whole entry): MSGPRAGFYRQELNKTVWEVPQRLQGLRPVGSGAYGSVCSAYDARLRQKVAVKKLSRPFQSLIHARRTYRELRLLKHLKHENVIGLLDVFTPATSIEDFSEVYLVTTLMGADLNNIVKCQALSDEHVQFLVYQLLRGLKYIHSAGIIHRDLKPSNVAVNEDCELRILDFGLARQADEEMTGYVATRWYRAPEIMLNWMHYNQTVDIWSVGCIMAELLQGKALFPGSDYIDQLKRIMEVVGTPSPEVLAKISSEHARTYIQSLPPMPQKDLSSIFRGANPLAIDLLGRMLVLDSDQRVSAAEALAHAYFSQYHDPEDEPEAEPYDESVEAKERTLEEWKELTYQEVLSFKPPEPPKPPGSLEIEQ

# molecule, ΔTm
rows = [
    ("C=CNC#N", "-0.1 °C"),
    ("CC(C)c1nn(-c2c(Cl)cccc2Cl)c2nc(Cc3ccc(OCCO)cc3)[nH]c(=O)c12", "0.7 °C"),
    ("O=C1Nc2ccc(S(=O)(=O)O)cc2/C1=C1/Nc2ccccc2/C1=N\\O", "1.4 °C"),
    ("CC(C)(C)c1cc(C=C2C(=O)C=CC2=O)cc(C(C)(C)C)c1O", "-1.5 °C"),
    ("CN(C)S(=O)(=O)c1ccc2c(c1)/C(=C/c1cc3c([nH]1)CCCC3)C(=O)N2", "1.1 °C"),
    ("O=C1c2ccccc2-[n+]2ccc3c([nH]c4ccccc43)c21 [FASCAPLYSIN CHLORIDE]", "-1.3 °C"),
    ("NC(=O)c1ccc2[nH]c(-c3ccc(Oc4ccc(Cl)cc4)cc3)nc2c1", "-0.4 °C"),
    ("O=C1Cc2c([nH]c3ccc(Br)cc23)-c2ccccc2N1", "0.2 °C"),
    ("COc1cc2c(cc1OC)-c1n[nH]c(Nc3cccc(F)c3)c1C2", "0.1 °C"),
    ("COc1ccc(S(=O)(=O)N(CCO)c2ccccc2CN(C)C/C=C/c2ccc(Cl)cc2)cc1", "0.2 °C"),
    ("Cc1cncc2cccc(S(=O)(=O)N3CCCNC[C@@H]3C)c12", "-0.1 °C"),
    ("Cc1ccc(NC(=O)c2cccc(N(C)C)c2)cc1NC(=O)c1ccc(O)cc1", "4.1 °C"),
    ("CCOC(=O)c1c(C)[nH]c(/C=C2\\C(=O)Nc3ccccc32)c1C", "-0.4 °C"),
    ("NCCNc1ncc(C(N)=O)c(Nc2cccc(C(F)(F)F)c2)n1", "2 °C"),
    ("CCOc1cc(/C=C(\\C#N)C(N)=O)cc(CSc2ccccc2)c1O", "-0.3 °C"),
    ("CCN(CC)CCNC(=O)c1c(C)[nH]c(/C=C2\\C(=O)Nc3ccc(F)cc32)c1C", "0.1 °C"),
    ("N#C/C(=C(/N)Sc1ccc(N)cc1)c1ccccc1C(F)(F)F", "0 °C"),
    ("COc1ccc(CNC(=O)Nc2ncc([N+](=O)[O-])s2)cc1", "1 °C"),
    ("CCN1/C(=C/C(C)=O)Sc2ccc(OC)cc21", "-0.1 °C"),
    ("Cn1cc(C2=C(c3cn(CCCSC(=N)N)c4ccccc34)C(=O)NC2=O)c2ccccc21", "2 °C"),
    ("Nc1ncnc2c1c(I)cn2[C@@H]1O[C@H](CO)[C@@H](O)[C@H]1O", "-0.4 °C"),
    ("CN(C)C[C@@H]1CCn2cc(c3ccccc32)C2=C(C(=O)NC2=O)c2cn(c3ccccc23)CCO1", "0.3 °C"),
    ("CC(C)(C)n1nc(-c2ccc(Cl)cc2)c2c(N)ncnc21", "4.6 °C"),
    ("CC(C)c1cc(/C=C(\\C#N)C(=O)NCCCc2ccccc2)cc(C(C)C)c1O", "0.1 °C"),
]
